Tested on: SK-OV-3 ovarian
Test: NCI tumour cell line growth inhibition, 48 h
Readout Label: GI50

The reported value for CCCCSSC(=S)N(CC)CC in terms of GI50 is > 100 µM

The reported value for CCOC(=O)c1ccc(NC(=O)Nc2nccs2)cc1 in terms of GI50 is 0.0445 µM

The reported value for CSc1nn2c(-c3ccc4ccccc4c3)ccnc2c1C#N in terms of GI50 is 2.2 µM

The reported value for O=C(Nc1cccc(-n2cc(-c3ccncc3)c(-c3ccc(Cl)c(O)c3)n2)c1)Nc1cccc(C(F)(F)F)c1 in terms of GI50 is 4.97 µM

---

System: SW-620 colon
Test: NCI tumour cell line growth inhibition, 48 h
Reported TGI values follow for various molecules

Known results for molecules:
>>> result("CCC(/C=C(C)/C=C/C(=O)c1c(O)c(-c2ccc(O)cc2)c[nH]c1=O)CO (stereo unspecified)")
"26.9 µM"
>>> result("O=C(C(Br)C(Br)c1ccccc1)C(Br)C(Br)c1ccccc1 (stereo unspecified)")
"1.09 µM"
>>> result("O=C1C=CC(=O)N1n1c(Cc2ccccc2)n[nH]c1=O")
"> 100 µM"

The reported value for Cc1noc(NS(=O)(=O)c2ccc(NC(=O)c3ccc4nc5ccccc5c(Nc5ccc(S(=O)(=O)Nc6onc(C)c6C)cc5)c4c3)cc2)c1C in terms of TGI is > 100 µM

The reported value for Cn1c2ccccc2c(=NNc2ccc(S(N)(=O)=O)cc2)c2ccccc21 in terms of TGI is > 50 µM

The reported value for OCCCNCC(O)c1ccc(OCc2ccccc2)c(OCc2ccccc2)c1 (stereo unspecified) in terms of TGI is 15.8 µM

---

Test system: EKVX NSCLC
Test: NCI tumour cell line growth inhibition, 48 h
Readout Label: TGI

The reported value for NS(=O)(=O)N(c1cc(C(F)(F)F)cc(C(F)(F)F)c1)C1CCN(Cc2ccc(C(F)(F)F)cc2)CC1 in terms of TGI is 15.2 µM

The reported value for Fc1cc(-c2cc(-c3ccccc3)n[nH]2)c(Cl)cc1Cl in terms of TGI is > 100 µM

---

System: UACC-62 melanoma
Test: NCI tumour cell line growth inhibition, 48 h; in the data active means GI50 below about 0.43 µM; inactive means the rest
Write down one outcome, taken from active, inactive

Check out these entries, answers already filled in.
>>> category("Cc1ccc(NS(=O)(=O)c2ccc(-c3cnc(C4CC4)o3)cc2)cc1C")
"active"
>>> category("COc1ccc(/C=C2\\CS(=O)(=O)C/C(=C\\c3ccc(OC)cc3)C2=O)cc1")
"inactive"
>>> category("COc1ccc(-c2cnoc2-c2ccc(OC)cc2O)cc1")
"inactive"
>>> category("C=C1C(=O)O[C@H]2[C@H]1CC/C(COC(=O)NCc1[nH]nc3ccccc13)=C\\CC[C@@]1(C)O[C@@H]21")
"inactive"

Fill in: this test's call for COc1ccc(/C=N/Nc2nc(N)nc(N3CCCC3)c2C#N)cc1 is ___
inactive

Fill in: this test's call for CCCCCCCCCCCCCCCCNC(=O)OC(C)C is ___
inactive

Fill in: this test's call for C/C=C(/C(=C/C)c1ccc(O)cc1)c1ccc(O)cc1 is ___
inactive

---

Tested on: MDA-N
Test: NCI tumour cell line growth inhibition, 48 h
Readout Label: TGI

>>> result("O=CC(NC(=O)N(CCCl)N=O)C(O)C(O)C(O)CO (configuration not stated)")
"> 1220 µM"
>>> result("C=CC(O)C#Cc1cnc(OC)nc1OC (configuration not stated)")
"> 100 µM"
>>> result("OCCCNCC(O)c1ccc(OCc2ccccc2)c(OCc2ccccc2)c1 (configuration not stated)")
"21.6 µM"
>>> result("Cc1nn(C(=O)Cc2ccccc2)c2c1C(c1ccc3ccccc3c1O)SC(N)=N2 (configuration not stated)")
"> 100 µM"
>>> result("C[C@]12CC[C@@H]3c4ccc(O)cc4CC[C@H]3[C@@H]1CC[C@@H]2OC(=O)CCC1CCCC1")
"20.2 µM"
>>> result("COc1cccc(NC(=O)CC(=O)Nc2cccc(OC)c2)c1")
"> 100 µM"

The reported value for Cc1ccc2nc3n(c2c1)C(c1c(F)cccc1F)SC3 (configuration not stated) in terms of TGI is > 100 µM

The reported value for O=C(Cc1ccc(OCc2cccc(Cl)c2)cc1)NO in terms of TGI is > 100 µM

The reported value for COc1c(-c2nc3nc(N4CCN(C)CC4)ccc3[nH]2)cc(OC)c2c1nc(CO)n2C in terms of TGI is > 100 µM

The reported value for COc1ccc(N2C(=O)C3c4[nH]c5ccc(OC)cc5c4C4CCC(C(C)C)CC4C3C2=O)cc1 (configuration not stated) in terms of TGI is > 100 µM
